Measured fraction unbound at 20 h, 5 μM of individual entries
target: Human serum albumin (HSA) (Homo sapiens); assay: HSA-binding assay (equilibrium dialysis); conditions: isolated protein
REPORTED PROPERTY: fraction unbound at 20 h, 5 μM

1. CCCCCCCCCCCCCCCCC(NC(=O)C(CCCCN)NC(=O)CCC(=O)O[C@]1(CC)C(=O)OCc2c1cc1n(c2=O)Cc2cc3ccccc3nc2-1)C(=O)O (stereo partly drawn) = < 0.001
2. CCCCCCCCCCCCCCCC(=O)N(CCC(=O)O[C@]1(CC)C(=O)OCc2c1cc1n(c2=O)Cc2cc3ccccc3nc2-1)CC(=O)O = < 0.001
3. CCCCCCCCCCCCCCCCC(NC(=O)CCC(=O)O[C@]1(CC)C(=O)OCc2c1cc1n(c2=O)Cc2c-1nc1ccc(O)cc1c2CC)C(=O)O (stereo partly drawn) = < 0.001
4. CCCCCCCCCCCCCCCCC(NC(=O)CCC(=O)O[C@]1(CC)C(=O)OCc2c1cc1n(c2=O)Cc2cc3c(CN(C)C)c(O)ccc3nc2-1)C(=O)O (stereo partly drawn) = < 0.002
5. CCCCCCCCCCCCCCCCC(NC(=O)CCC(=O)O[C@]1(CC)C(=O)OCc2c1cc1n(c2=O)Cc2cc3ccccc3nc2-1)C(=O)O (stereo partly drawn) = < 0.001
6. CCCCCCCCCCCCCCCC(=O)N[C@@H](CCC(=O)NCC(=O)O[C@]1(CC)C(=O)OCc2c1cc1n(c2=O)Cc2c-1nc1ccc(O)cc1c2CC)C(=O)O = < 0.001

====

Quick list: fraction unbound at 20 h, 5 μM per entry.
target: Human serum albumin (HSA) (Homo sapiens, UniProt P02768); assay: HSA-binding assay (equilibrium dialysis); settings: isolated protein
Sequence (P02768 25-609): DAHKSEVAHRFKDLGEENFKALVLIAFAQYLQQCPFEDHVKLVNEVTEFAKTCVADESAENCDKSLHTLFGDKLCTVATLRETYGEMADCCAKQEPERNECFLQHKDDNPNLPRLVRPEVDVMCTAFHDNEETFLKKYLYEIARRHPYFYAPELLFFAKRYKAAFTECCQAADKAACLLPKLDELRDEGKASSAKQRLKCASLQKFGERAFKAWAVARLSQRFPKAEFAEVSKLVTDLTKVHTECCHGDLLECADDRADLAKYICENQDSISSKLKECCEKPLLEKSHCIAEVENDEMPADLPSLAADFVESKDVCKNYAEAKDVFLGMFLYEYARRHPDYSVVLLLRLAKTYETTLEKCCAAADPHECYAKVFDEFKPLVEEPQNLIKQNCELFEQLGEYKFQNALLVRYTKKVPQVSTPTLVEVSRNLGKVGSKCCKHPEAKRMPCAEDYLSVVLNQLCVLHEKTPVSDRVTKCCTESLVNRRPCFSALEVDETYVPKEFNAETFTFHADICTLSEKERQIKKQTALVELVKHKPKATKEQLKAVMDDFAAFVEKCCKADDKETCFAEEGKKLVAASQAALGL
REPORTED PROPERTY: fraction unbound at 20 h, 5 μM

1) CCCCCCCCCCCCC(NC(=O)CCC(=O)O[C@]1(CC)C(=O)OCc2c1cc1n(c2=O)Cc2cc3c(CN(C)C)c(O)ccc3nc2-1)C(=O)O (stereo partly drawn) = < 0.002
2) CCCCCCCCCCCCCCCCC(NC(=O)CCCC(=O)O[C@]1(CC)C(=O)OCc2c1cc1n(c2=O)Cc2cc3c(CN(C)C)c(O)ccc3nc2-1)C(=O)O (stereo partly drawn) = < 0.002
3) CCCCCCCCC(NC(=O)CCC(=O)O[C@]1(CC)C(=O)OCc2c1cc1n(c2=O)Cc2cc3c(CN(C)C)c(O)ccc3nc2-1)C(=O)O (stereo partly drawn) = 0.015

All figures here come from patent US9150585B2.
